system: MS2 coat protein; experiment: apparent KD of MS2 coat protein, switch OFF state (with FMN for OFF switches, without FMN for ON switches); designed switch direction (-1 OFF switch, 1 ON switch): 1; higher = weaker reporter binding; settings: FMN input: 0 or 200 uM; Eterna round: R93 (includes R88 designs)
quantity measured: apparent KD of MS2 coat protein (nM)
The response must be a number in nM with no trailing unit.

# apparent KD of MS2 coat protein (sequence: AGGAGACAUGAGGAUCACCCAUGUGAGAAGAGGCGAGGAUAUCGAAAGAAAGAAGAGAAACGAGAAGGCGCGAGGU [salish99-SS1-023] ) is 36.7

###

system: MS2 coat protein; assay: apparent KD of MS2 coat protein; higher = weaker reporter binding; details: Eterna round: R107; input ligand: none
quantity measured: apparent KD of MS2 coat protein (nM)
The response must be a number in nM with no trailing unit.

residues	system name	unit info	apparent KD of MS2 coat protein
CACAUGAGGAUCACCCAUGUCUGAACUGAAGGAGCGCUAAACAAGGCAGGUAGGUCGCGGAAUUUUGUGUGCAUAUGCACACGGG [9.R]	MS2 coat protein	nM	17.2
UGUAUGGACUGAAGGAGCGGAUGAUAUCAUGAGGAUCACCCAUGGAAUAAGGCGAAAGCCAUCCAGGUAGGUCGCAGUCCAUACU	MS2 coat protein	nM	72.7

# apparent KD of MS2 coat protein (sequence: AAUCGUAAGGCGGCCGCCACUACACAUGAGGAUCACCCAUGUCUCGCGGGCUUGCGUUGGGAUUGUAGGACCGGGCCAGUAAUAA [Exclusion - Tryptophan B (Freestyle 12)] ) is 26.4

# apparent KD of MS2 coat protein (sequence: AUCCACAGCCGAAGGAGCGCUAUAGGAUGACAUGAGGAUCACCCAUGUGUGUGAUGUGGAUAGCAGGUAGGUCGCGGAGUGGAUU [Exclusion - Arginine B (Freestyle 10)] ) is 29.5

# apparent KD of MS2 coat protein (sequence: CCUGCGUUUCUUCUUUCGCAGGAGGAUGAUACCAGUAGGGAAACCUACCCUUGGCAGCAUGGGACAUGAGGAUCACCCAUGUGGA [SSThA NP+V+V2 #1] ) is 503

# apparent KD of MS2 coat protein (sequence: UAACAUGAGGCGGCCGCCACUCAACAUGAGGAUCACCCAUGUAUGUGUAAACAUGAGGAUCACCCGAGGACCGGGCCCUUGUAAU [Same State Tryptophan B 4] ) is 33.4

# apparent KD of MS2 coat protein (sequence: UGACAUUGCUCAGAUACCAGACAUGAGCAUCAGCCAUGUGCCAACAAGUACAAAAUAAAAGUCCCUUGGCAGCUGAGCAAUGUCU [TheoBX 21 #MS2Left #AlternativeMS2 #Theo2] ) is 9.88

# apparent KD of MS2 coat protein (sequence: ACCUGUACGAAAAGUGCAGGACACGAAUAACGAGGACCGGUACGGCCGCCACUCGGAAAAUAACCUGAGGAUCACCCUGGUCGUG [TrypAS 7 #AlternativeMS2 #Zipper #StaticStem] ) is 31.6

# apparent KD of MS2 coat protein (sequence: UGUAUGUGAUCUGAUACCAGAGUGACGCGAAAGCGACCUGAGGAUCACCCUGGUAAAUAACUCCCUUGGCAGCAGAUCGCAUACU ) is 45

# apparent KD of MS2 coat protein (sequence: UCAUGCAGGUCGGCCGCCACUACACACAUGAGGAUCACCCAUGUAGUUACUGGGUGAAGUGGCAGUAGGACCGGGACCUGCAUAC [Brourdmod09] ) is 591

# apparent KD of MS2 coat protein (sequence: GCCAUCGGCGAAAGCCGAUGGUAUACAGAAGGAGCGCACGAAAGUGCAGGUAGGUCGCUGAACAUGAGGAUCACCCAUGUAAUAA [#29 Same State - Arginine A] ) is 20.2

# apparent KD of MS2 coat protein (sequence: GGGCAAGAGGGAAGGAGCGUCAGCUGAGUAACAUGAGGAUCACCCAUGUAGCACAUAGUGUGACAGGUAGGUCGCCCUCUGCCCU [SS-ArgB6] ) is 8.97

###

system: MS2 coat protein; assay: apparent KD of MS2 coat protein; higher = weaker reporter binding; settings: Eterna round: R107; input ligand: theophylline 20 uM
quantity measured: apparent KD of MS2 coat protein

Below, each entry is followed by its recorded apparent KD of MS2 coat protein result.
residues	system name	test result
AGCGCAGGUCCUGAUACCAGAGACAUGAGGAUCACCCAUGUCCGGUGGUCCUGCCACAGGCUCCCUUGGCAGCAGGGCUUGUGCU [Exclusion Theophylline B GF9]	MS2 coat protein	40.8 nM
ACAUGAGGAUCACCCAUGUAUGACUAUCCUCGAGGACCGGUACGGCCGCCACUCGAACGAGUGGCUCGCGAGUGCGCACUUGCGA [5' end]	MS2 coat protein	16.7 nM
UUACAUGAGGAUCACCCAUGUCAUACAGAAGGAGCGUCACAUAAGACAGGUAGGUCGCUGUUAUAUCAUACUAUUAUAUCCUCUA [JR_Nu_ExcArginiA_Sub028]	MS2 coat protein	53.5 nM
UCUAACAUGAGGAUCACCCAUGUGGGUUAUCGAGGACCGGUACGGCCGCCACUCGACCAGUAUAACUGGCUAGAACGUAUUUGAU [theeternabot_sameState_MS2_Trp_A_34]	MS2 coat protein	53.6 nM
ACAUUUAACUGAAGGAGCGUGAUUAACAUGAGGAUCACCCAUGUAACUUAGAUGCUUAUAUCACAGGUAGGUCGCAGACUAAUGA [JR_ExcArginiB_Sub011]	MS2 coat protein	18.3 nM

Summary line: ACAUCCAGGUUAAUCGUGGGCAUACUCGAUACCAGUAUUUUAAUCUACCCUUGGCAGCGACAUGAGGAUCACCCAUGUGCGAUGA [XTheo A #12] , MS2 coat protein, reported apparent KD of MS2 coat protein = 14.1 nM

###

system: K4 kissing-loop RNA reporter; test: apparent KD of K4 kissing-loop reporter; higher = weaker reporter binding; details: Eterna round: R107; input ligand: arginine 13.2 mM;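 further: bound reporter read as fluorescence of individual clusters on recovered sequencing chips by microscopy, with normalized cluster intensities fitted with a binding model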
quantity measured: apparent KD of K4 kissing-loop reporter (nM)
The response must be a number in nM with no trailing unit.

Below, each entry is followed by its recorded apparent KD of K4 kissing-loop reporter result.
residues	unit info	apparent KD of K4 kissing-loop reporter
UUAAUAAUUCAAGGAUAUGUUUUCUAUUUCGAGUGAUGUUCGGAAUUAAUAAAUUUAAAAGAUUAUACAGAAGGUGAUAGAUAGU [Cynwulf-mod#3]	nM	82.5
GUCUGAUGCGUUGAUACCAGUCCUUCAGUGAUGUUGCAAGCGCGGCCUAUCAAGCAAUCCGACCCUUGGCAGCAAUAGGUCCGAA [theeternabot_exclusion_KL_Theo_B_9]	nM	568
UUUAUUAAGACGGCCGCCACUGAUUCAGAGUGAUGUUCUGAUAUUUUUUUAUAUAAUAAUAACAGCAGGACCGGGUCAAUUAUUA [JR_SSTryptoB_Sub013]	nM	237
GGACCGCCAGUGAUGUUGGAGAUAAACUCCAAGGAUAUGACGAAAGUCAGAAGGUGGUAAUAAGACGUCAAAGACGUCAGGUCCA [FmnA 21 #SwitchBubble #K4Early]	nM	206

Summary line: GGGAGCAAAGCUCCCGGAUGCUAUUACCAGGAGGAUAUCUGGAAACAGAGAAGGCCUAAGCCAGUGAUGUUGGUUUCGAGCAUCC , K4 kissing-loop RNA reporter, reported apparent KD of K4 kissing-loop reporter = 257

Summary line: AAUAUAGUGAUGUUAUAUAAGAAGGAGUUACGAGGACCGGUACGGCCGCCACUCGAAACGAGUGAGGAUUUGGGAGAUUGGGUUU [SSTryptA.M] , K4 kissing-loop RNA reporter, reported apparent KD of K4 kissing-loop reporter = 443

###

system: MS2 coat protein; experiment: apparent KD of MS2 coat protein; higher = weaker reporter binding; conditions: Eterna round: R107; input ligand: none
// reported apparent KD of MS2 coat protein for each item listed
The response must be a number in nM with no trailing unit.

Below, each entry is followed by its recorded apparent KD of MS2 coat protein result.
> print(dat)
                                   residues       system.name                quantity.measured  test.result
1  ACCUGCGUUUGAUUCUAUCUGACGCAGGUUCGAGGACCGGUACGGCCGCCACUCGGACAUGAGGAUCACCCAUGUUUGACAUGGG [#03 Exclusion Tryptophan A]  MS2 coat protein  apparent KD of MS2 coat protein          121
2  AAGUGGCACGGAAGGAGCGAGUUUACCUAGAUAACAUGAGGAUCACCCAUGUAUAAUGGGACUCAGGUAGGUCGCCGUUGUCACU [#29 Same State - Arginine B]  MS2 coat protein  apparent KD of MS2 coat protein         34.8
3  ACAUGAGGAUCACCCAUGUUAUUUACCGAAGGAGCGGGUAUAUACCCAGGUAGGUCGCGGACAACAUGAGGAUCACCCACAUGAG [AstrosSSArgA#21]  MS2 coat protein  apparent KD of MS2 coat protein         28.5
4  CACAUGAGGAUCACCCAUGUCUGAACUGAAGGAGCGCUAAAUAAGGCAGGUAGGUCGCGGAAUUUUGUGUGCAUAUGCAUAUGGG [9.M]  MS2 coat protein  apparent KD of MS2 coat protein         26.8
5  UUAUGCAGGUCGGCCGCCACUACACACAUGAGGAUCACCCAUGUAGUUACUGGGUGAAGUGGCAGUAGGACCGGGACCCGCACAU [Brourdmod21]  MS2 coat protein  apparent KD of MS2 coat protein          367

Let's switch to this sequence now.
# apparent KD of MS2 coat protein (sequence: GUAUACAUGAGGAUCACCCAUGUACCAGAAGGAGCGCUGGAAACAGCAGGUAGGUCGCUGGUAGGUCCUCUAUCUAGACGUUCGG [EAA NP+V+V2 #4] ) is 168
